Cited source: ChEMBL document CHEMBL3988442

Please provide measured Percent Effect for the entries that follow.
tested on: Wolbachia pipientis; assay: Anti-Wolbachia Cell-Based Screen; assay type: functional; design: scale not given: in the data most compounds retested in dose-response had high values; conditions: 5 µM
Among all 48,000 compounds or so, about 13,000 (27%) showed an effect of 50% or more. The list shows a part of the results.
Response body: numeric value in %, unit text excluded.

Field Percent Effect (system: Wolbachia pipientis) for entry Cc1cc(CN2C[C@@H]3CCCO[C@@H]3[C@H](NS(C)(=O)=O)C2)no1.O=C(O)C(F)(F)F = -7.292

Field Percent Effect (system: Wolbachia pipientis) for entry CCS(=O)(=O)N1CC[C@H](OC)[C@H]2CN(Cc3ccncc3)C[C@H]21.O=C(O)C(F)(F)F.O=C(O)C(F)(F)F = 4.967

Field Percent Effect (system: Wolbachia pipientis) for entry COCCN1CCN(Cc2ccncc2)[C@H]2CS(=O)(=O)C[C@H]21 = 0.5994

Field Percent Effect (system: Wolbachia pipientis) for entry O=S1(=O)C[C@@H]2[C@H](C1)N(Cc1ccoc1)CCN2Cc1ccncc1 = -1.69

Field Percent Effect (system: Wolbachia pipientis) for entry CO[C@@H]1CCN(Cc2cccs2)[C@@H]2CN(Cc3ccncc3)C[C@@H]21.O=C(O)C(F)(F)F.O=C(O)C(F)(F)F.O=C(O)C(F)(F)F = 96.91

Field Percent Effect (system: Wolbachia pipientis) for entry Cc1oncc1C(=O)N[C@@H]1CN(CC2CC2)C[C@@H]2CCCO[C@@H]21.O=C(O)C(F)(F)F = 91.11

Field Percent Effect (system: Wolbachia pipientis) for entry C[C@@H]1CN2C[C@H](O)CC2CN1Cc1ccncc1 (some centres not stated) = 148.8

Field Percent Effect (system: Wolbachia pipientis) for entry Oc1ccc(N2CCN(Cc3ccc(F)cc3Br)CC2)cc1 = 1.788

Field Percent Effect (system: Wolbachia pipientis) for entry C[C@H]1CN2C[C@H](O)CC2CN1Cc1ccncc1 (some centres not stated) = 120.2

Field Percent Effect (system: Wolbachia pipientis) for entry O=C([C@H]1C[C@H]2OCC[C@H]2N(Cc2ccncc2)C1)N1CCCCO1 = -15.5

Field Percent Effect (system: Wolbachia pipientis) for entry O=C(CC1CC1)N[C@@H]1CN(Cc2ccncc2)C[C@@H]2CCCO[C@@H]21.O=C(O)C(F)(F)F.O=C(O)C(F)(F)F = -9.965

Field Percent Effect (system: Wolbachia pipientis) for entry CO[C@H]1CCN(C2CCC2)[C@@H]2CN(Cc3ccncc3)C[C@H]12.O=C(O)C(F)(F)F.O=C(O)C(F)(F)F.O=C(O)C(F)(F)F = 1.676

Field Percent Effect (system: Wolbachia pipientis) for entry CC(C)NC(=O)[C@H]1C[C@@H]2[C@@H](C1)OCCN2Cc1ccncc1 = -4.174

Field Percent Effect (system: Wolbachia pipientis) for entry COCCNC1(c2ccc(Cl)cc2)CCOCC1 = 5.533

Field Percent Effect (system: Wolbachia pipientis) for entry CO[C@@H]1CCN(S(=O)(=O)N(C)C)[C@@H]2CN(Cc3ccncc3)C[C@@H]21.O=C(O)C(F)(F)F.O=C(O)C(F)(F)F = 7.733

Field Percent Effect (system: Wolbachia pipientis) for entry O=C(NCCc1ccncc1)[C@H]1CC[C@@H]2[C@@H](CCN2C2CCC2)O1 = -5.975

Field Percent Effect (system: Wolbachia pipientis) for entry Cc1ncsc1CN1C[C@@H]2CCCO[C@@H]2[C@H](Nc2ccccn2)C1.O=C(O)C(F)(F)F.O=C(O)C(F)(F)F = 103.9
